Assay: Pharmacokinetic experiments in rats
Format: in vivo
Details: Sprague-Dawley, rat, plasma, po, 25 mg/kg
readout: AUC(0-inf) (ng·h/mL)
Numbers only here, please. The scale is ng·h/mL.

[in] Look up AUC(0-inf): CCc1occc(=O)c1OC(=O)c1ccc(O)c(OC)c1
[out] 4490

====

Assay: Pharmacokinetic experiments in rats
Format: in vivo
Conditions: Sprague-Dawley, rat, plasma, iv, 10 mg/kg
readout: Vd (L/kg)
Value expressed in L/kg; do not type the unit.

[in] Name the reported Vd value associated with the compound CCc1occc(=O)c1OC(=O)c1ccc(O)c(OC)c1 [SP‐8008]
[out] 5.3

Each recorded value in this set is attributed to paper PMC7024737.
